SPOT peptide array binding signal intensity listing for selected binders.
Target: AgNbp2
Experiment: SPOT peptide array binding signal intensity (averaged, normalized) (arbitrary units (background-subtracted, floor 0; scale differs between SH3 domains)); higher = stronger binding of the SH3 domain to the peptide
Simply state the number, no unit and no words.

KTRLRPAFIQQLWSS : 94.5
ISRRRLPVIMHRLKM : 303

# input Tell me SPOT peptide array binding signal intensity reported for "HKVLRPFLLRRLKKD"
# output 45.8

The values you see were collected from the supplement of paper PMC4466140.
